Hi there, I'd appreciate the recorded abundance fitness for every entry that follows.
B1: Connector enhancer of kinase suppressor of ras 2, residues 9 to 71; numbered along this chain, Q8WXI2 (parent)
chain: SKWSPSQVVDWMKGLDDCLQQYIKNFEREKISGDQLLRITHQELEDLGVSRIGHQELILEAVD

- Variants of: B1
- assay-remarks: abundance fitness (aPCA) (normalised: wild type 0, dead -1); higher = more abundant; growth selection in yeast, the domain comes from the species named
- assay-setup: Homo sapiens

Task item: Item S32W has what recorded abundance fitness?
Reply: -0.322

Task item: Item D17Y has what recorded abundance fitness?
Reply: -0.203

Task item: Item Q21S has what recorded abundance fitness?
Reply: -0.118

Task item: Item H41V has what recorded abundance fitness?
Reply: -0.06

Task item: Item V62P has what recorded abundance fitness?
Reply: -0.779

Task item: Item I58L has what recorded abundance fitness?
Reply: -0.096

Task item: Item L37E has what recorded abundance fitness?
Reply: -0.193

Task item: Item L15K has what recorded abundance fitness?
Reply: -0.48

Task item: Item K13M has what recorded abundance fitness?
Reply: -0.103

Task item: Item I58E has what recorded abundance fitness?
Reply: -0.584

Task item: Item R38F has what recorded abundance fitness?
Reply: -0.416

Task item: Item N25Q has what recorded abundance fitness?
Reply: -0.133

Task item: Item E43Q has what recorded abundance fitness?
Reply: 0.03

Task item: Item L37R has what recorded abundance fitness?
Reply: -0.145

Task item: Item Q55A has what recorded abundance fitness?
Reply: -0.296

Task item: Item D63G has what recorded abundance fitness?
Reply: 0.041

Task item: Item R38M has what recorded abundance fitness?
Reply: -0.307

Values from the Human Domainome abundance scans (Beltran et al. 2025)
